Let's look at some compounds and their measured melting point.

CN(C)C(=O)n1c(CN2CCN(c3ccccn3)CC2)nc2ccccc21 ... 174 to 176 °C
Clc1ccccc1N1CCN(Cc2nc3ccccc3[nH]2)CC1 ... 245 to 246 °C
Fc1ccccc1N1CCN(Cc2nc3ccccc3[nH]2)CC1 ... 262 to 264 °C

-- ask Requested read-out: melting point. Entry: N#Cc1ccccc1N1CCN(Cc2nc3ccccc3[nH]2)CC1
-- reply 236 to 237 °C

-- ask Same for Oc1ccccc1N1CCN(Cc2nc3ccccc3[nH]2)CC1
-- reply 208 to 216 °C

-- ask Param item: C[C@H]1CN(c2ccccn2)CCN1Cc1nc2ccccc2[nH]1
-- reply 149 to 151 °C

-- ask Next record, please: C[C@@H]1CN(c2ccccn2)CCN1Cc1nc2ccccc2[nH]1
-- reply 151 to 153 °C

-- ask Now try Oc1ccc(N2CCN(Cc3nc4ccccc4[nH]3)CC2)nc1 .
-- reply 144 to 145 °C

---

Reported melting point is given for each of the following compounds.

O=C(N1CCCC1)n1c(CN2CCN(c3ccccn3)CC2)nc2ccccc21 ... 120 to 121 °C
c1cnc(N2CCN(Cc3nc4ccccc4[nH]3)CC2)nc1 ... 198 to 200 °C
CC1CN(c2ccccn2)CCN1Cc1nc2ccccc2[nH]1 (stereo not drawn) ... 207 to 209 °C
N#Cc1cccnc1N1CCN(Cc2nc3ccccc3[nH]2)CC1 ... 208 to 210 °C
Fc1cccnc1N1CCN(Cc2nc3ccccc3[nH]2)CC1 ... 210 to 212 °C

Note: attention shifts to another entry.
-- ask For Oc1ccc(N2CCN(Cc3nc4ccccc4[nH]3)CC2)cc1 , what is its reported melting point?
-- reply 206 to 209 °C

---

Observed property: melting point

CCOc1ccccc1N1CCN(Cc2nc3ccccc3[nH]2)CC1 ... 95 to 100 °C
c1ccc2[nH]c(CN3CCN(c4nccs4)CC3)nc2c1 ... 203 to 205 °C

Next up:
-- ask Please look up its melting point: CSc1ccccc1N1CCN(Cc2nc3ccccc3[nH]2)CC1
-- reply 214 to 216 °C
